- Tested on: T. cruzi (Tulahuen C2C4, intracellular amastigotes)
- TEST NAME: in vitro activity on T. cruzi, serial dilution assay
- Assay type: cell-based, Trypanosoma cruzi
- RUN PARAMETERS: Trypanosoma cruzi, TULAHUEN, 96 h, 96 h exposure; means of two independent assays ± deviation from the mean; read-out: IC50 T. cruzi
ASSAY READOUT: IC50 (µM)
API: value field is a number in µM; no unit string.

Reported IC50 ( CC(C)C[C@@H]1NC(=O)[C@@H](NC(=O)[C@H](Cc2c[nH]c3ccccc23)N(C)C)[C@H](C(C)C)Oc2ccc(cc2)/C=C\NC1=O ) = 43.6

Reported IC50 ( CC(C)=CCC1=C(O)C(=O)c2c(O)ccc(O)c2C1=O ) = 27.4

Reported IC50 ( COc1cc([C@@H]2OC[C@@H]3[C@H]2CO[C@H]3c2cc(OC)c(O)c(OC)c2)cc(OC)c1O ) = 29.2

---

- TEST NAME: cytotoxicity in L6 cells
- Type: cell-based, rat
- RUN PARAMETERS: rat, IC50 Cytotoxicity
- Experimental: The in vitro activity was assessed on T. b. rhodesiense (STIB900, trypomastigotes), T. cruzi (Tulahuen C2C4, intracellular amastigotes), L. donovani (MHOM-ET-67/L82, axenically grown amastigotes), P. falciparum (NF54, intraerythrocytic), and L6 cells (ATCC, CRL-1458™, rat skeletal myoblasts) as previously described ([Bernal et al., 2020]). The activities were determined in serial dilution assays with 72 h compound exposure, respectively 96 h for intracellular T. cruzi. […]
Give IC50 at 72 h for every item shown.

Reported IC50 at 72 h ( C=C(C)C12CCC3(CCC4(C)C(CCC5C6(C)C(C(=O)O)C(O)C(C)(C)C6CCC54C)C31)C(=O)O2 (stereo not drawn) ) = > 50 µM

Reported IC50 at 72 h ( CN[C@H](C)C(=O)N[C@H](C(=O)N1CC[C@@H]2Oc3ccc(OC)c(c3)/C=C\NC(=O)[C@H](Cc3ccccc3)NC(=O)[C@H]21)C(C)C ) = > 50 µM

Reported IC50 at 72 h ( C=C(C)[C@@H]1CC[C@]2(C(=O)O)CC[C@]3(C)[C@H](CC[C@@H]4[C@@]5(C)[C@@H](C(=O)O)[C@H](O)C(C)(C)[C@@H]5CC[C@]43C)[C@@H]12 ) = > 50 µM

Reported IC50 at 72 h ( CN[C@@H](C)C(=O)N[C@H](C(=O)N1CC[C@@H]2Oc3ccc(cc3)/C=C\NC(=O)[C@H](Cc3ccccc3)NC(=O)[C@H]21)C(C)C ) = > 50 µM

Reported IC50 at 72 h ( CCCCCCCCCCCCCCCC(=O)OCC(O)COP(=O)([O-])OCC[N+](C)(C)C (stereo not drawn) ) = > 20 µM

Reported IC50 at 72 h ( COc1ccc2cc1/C=C\NC(=O)[C@H](Cc1ccccc1)NC(=O)[C@@H]1[C@H](CCN1C(=O)[C@@H](NC(=O)C(C)N(C)C)C(C)C)O2 (stereo in doubt) ) = > 50 µM

---

- Test system: T. cruzi (Tulahuen C2C4, intracellular amastigotes)
- TEST NAME: in vitro activity on T. cruzi, serial dilution assay
- Type: cell-based, Trypanosoma cruzi
- RUN PARAMETERS: Trypanosoma cruzi, TULAHUEN, 96 h, 96 h exposure; means of two independent assays ± deviation from the mean; read-out: IC50 T. cruzi
pIC50: −log10 of the molar value.
ASSAY READOUT: pIC50

Reported pIC50 ( CN[C@@H](C)C(=O)N[C@H](C(=O)N1CC[C@@H]2Oc3ccc(cc3)/C=C\NC(=O)[C@H](Cc3ccccc3)NC(=O)[C@H]21)C(C)C [Compound 4, mauritine F] ) = < 4.30

Reported pIC50 ( CCC(C)[C@@H]1NC(=O)[C@@H](NC(=O)[C@H](Cc2ccccc2)N(C)C)[C@H](C(C)C)Oc2ccc(cc2)/C=C\NC1=O (stereo partly drawn) [Compound 8, lotusanine A] ) = < 4.30

Reported pIC50 ( CC1(C)C=CC2=C(O1)C(=O)c1c(O)ccc(O[C@@H]3O[C@H](CO)[C@@H](O)[C@H](O)[C@H]3O)c1C2=O [Compound 29] ) = < 4.30
